# Subject of test: PD-1 (UniProt Q15116)
# Sequence (Q15116 25-170 limits assumed): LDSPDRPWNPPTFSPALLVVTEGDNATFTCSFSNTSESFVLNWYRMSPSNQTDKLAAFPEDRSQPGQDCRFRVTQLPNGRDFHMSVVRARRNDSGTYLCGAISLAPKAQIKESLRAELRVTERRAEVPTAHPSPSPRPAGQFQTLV
# Run description: blocking ELISA, clone supernatant, competitor PD-L1.hFc detected with anti-human Fc HRP
Quantity: log10 of OD450, PD-L1 binding with PD-1 (log10 of the value in OD450)
Could you please treat all values as log10 of OD450, PD-L1 binding with PD-1 in OD450?

Consider the reported log10 of OD450, PD-L1 binding with PD-1 for these binders:
- Binder: "NB532 (VHH) VHH: QVQLVETGGGLVQAGGSLRLSCAASGRTFSSYNMGWFRQAPGKEREFVAAISWSGGSQGYAAAVKDRFTISRDNAKNTVYLQMNSLKAEDTAVYYCAAKYHSGSYYYTSIRPEEYDYWGQGTQVTVSS"
  log10 of OD450, PD-L1 binding with PD-1: 0.34
- Binder: "NB735 (VHH) VHH: EVQVVESGGGLVQPGGSLTLSCAVSGFTLDDYSIGWFRQAPGRAREAVSCTSNRDGSTYYEDSVKGRFTISRDNAKNTVYLQMNSLKPEDTAVYRCSTDCSLYGSTYSPDYWGQGTQVIVSS"
  log10 of OD450, PD-L1 binding with PD-1: 0.39
- Binder: "NB194 (Fc fusion, not shown: a dimerising Fc or GST) VHH: QVQLVETGGGLVRAGGSLRLSCTASGRPFSIYDMGWFRQAPDKERESVAVINLSRGDTYYADSVKGRFTISLDSAKNTVYLQMNSLKPEDTAVYSCGVDRRQYGLGIPPLADHWGQGTQVTVSS"
  log10 of OD450, PD-L1 binding with PD-1: -0.82

# log10 of OD450, PD-L1 binding with PD-1 (binder: NB221 (VHH) VHH: EVQLVESGGGLVQAGDSLRLSCAASGRTFSSVAMGWFRQAPGKEREFVAAISRSGGSAGYADSVKDRSTIARDNTKNTVYLQMNSLKPEDTAVYFCAASEYDFCSTHGCYDYWGQGTQVTISL ) is 0.35

# log10 of OD450, PD-L1 binding with PD-1 (binder: NB218 (VHH) VHH: QLQLVESGGGLVQAGDSLRLSCAASGRTFSSIAMGWFRQAPGKEREFVAAISRSGGSAGYADSVKDRSTIVRDNTKNTVYLQMNSLKPEDTAVYFCAASDYDFCSTHGCYDYWGQGTQVTISS ) is 0.37

# log10 of OD450, PD-L1 binding with PD-1 (binder: NB139 (VHH) VHH: EVQVVESGGGLVQTGGSLRLSCAASGDTALISAMGWYRQAPGKERELVAALTNTGITYYADSVKGRFTISRDNAKNTVYLQMNSLKPEDTAVYYCNAGAPPPGGLGYDESDYWGQGTQVTVSS ) is 0.38
